# Test system: OVCAR-5 ovarian
# PROCEDURE_TEXT: NCI tumour cell line growth inhibition, 48 h; in the data active = GI50 below about 0.43 µM; inactive = the rest
Classes used: active, inactive

1. O=Cc1ccc(-c2ccc(-c3nc4ccccc4s3)cc2)s1 :: inactive
2. Cc1cc(O)c(C2=NN(c3ccc(S(N)(=O)=O)cc3)C(/C=C/c3ccccc3)C2)cc1Cl (stereo not given) :: inactive
3. Cl.Fc1c[c-]c(-c2ccccn2)c(F)c1.[Pt].c1ccc([PH+](C[PH+](c2ccccc2)c2ccccc2)c2ccccc2)cc1 :: active
4. O=C1/C(=C/c2ccc(O)cc2)COc2ccc(O)c(O)c21 :: inactive
5. NC1(Cc2ccc(Cl)cc2)CCN(c2ncnc3[nH]ccc23)CC1 :: inactive
6. CC(=O)/C=C/c1ccc(OCc2ccc(Cl)cc2)cc1 :: inactive
7. COc1cnc2c(c1)C(=O)c1c-2n(CCCN2CCC(O)CC2)c(=O)c2cc(Cl)ccc12 :: inactive
8. O=C1c2cccnc2C(=O)c2c1c(C(=O)OCCCN1CCCCC1)c1ccccn21 :: active
9. CCCCOC1OC(COC(=O)C(C)C)C(OC(=O)C(C)C)C(O)C1OC1OC(C)C(OC(=O)CCC)C(OC(=O)C(C)C)C1O (stereo not given) :: inactive
10. Cc1[nH]c2cc(F)ccc2c1-c1nc2c3cccnc3c3ncccc3c2[nH]1 :: inactive
11. COc1ccc(C(=O)c2sc3nc(-c4cccs4)ccc3c2N)cc1OC :: inactive
12. CCCCCCNCc1cc(C(C)(C)C)cc(CNCCCCCC)c1O :: inactive
13. CC1SC2(CCCCC2)N(NC(=O)c2[nH]c3ccc(Br)cc3c2-c2ccccc2)C1=O (stereo not given) :: inactive
14. O=C1CC/C(=C/COc2cc(=O)oc3ccccc23)O1 :: inactive
15. CCCCCCCCCCCCCC[n+]1ccc(C)cc1 :: inactive

* * *

# Tested on: M19-MEL melanoma
# PROCEDURE_TEXT: NCI tumour cell line growth inhibition, 48 h
TGI reference
ENDPOINT_LABEL: TGI (µM)

1) CC12CCC(CC1)C(C)(C)O2 :: 64.5
2) CC(=O)NC(C=O)C(O[C@H](C)C(=O)NC(C)C(=O)NC(CCC(N)=O)C(=O)OCc1ccccc1)C(O)C(O)COC(=O)CCNc1c2ccccc2nc2cccc([N+](=O)[O-])c12 (stereo not given in full) :: 4.02

* * *

# Test system: HCT-15 colon
# PROCEDURE_TEXT: NCI tumour cell line growth inhibition, 48 h
ENDPOINT_LABEL: TGI

1. O=c1cccc(-c2cccc(=O)[nH]2)[nH]1 :: > 100 µM
2. O=C(O)c1nc2ccc(C(F)(F)F)cc2nc1Nc1ccc(F)cc1 :: 70.2 µM
3. CC1(C)COC2=C(C1)C(=O)c1ccccc1C2=O :: 2.41 µM
4. COc1cccc(SSc2cccc(OC)c2C(=O)O)c1C(=O)O :: > 100 µM
5. NC(=O)CC(N=Cc1nc(-c2ccccc2)oc1O)C(=O)O (stereo unspecified) :: > 100 µM
6. O=C(Cn1c(C(=O)c2ccccc2)nc2ccccc21)c1ccccc1 :: > 100 µM

* * *

# Tested on: UO-31 renal
# PROCEDURE_TEXT: NCI tumour cell line growth inhibition, 48 h
ENDPOINT_LABEL: TGI (µM)

1) COc1cc2c(/C=C3/C(=O)N(C)c4ccc(O)cc43)c(Cl)[nH]c2cc1C :: 24.5
2) C(=Nc1ccc(-c2nc3ccccc3s2)cc1)c1ccc[nH]1 :: 53.5
3) CCOC(=O)/C=C(\C(=O)OCC)n1cc(C)c(=O)n(Cc2cnnn2COCCOC(C)=O)c1=O :: 27.5
4) Cc1[nH]c2cc(F)ccc2c1-c1nc2c3cccnc3c3ncccc3c2[nH]1 :: 0.929
5) COc1cc2ccnc3c(=C(SC)SC)c(=O)c(c1OC)c23 :: 29.3
6) CC(C)(C)N/N=C(\C(=O)NC1=C(Cl)C(=O)c2ccccc2C1=O)C1C=CCS1(=O)=O (centres undefined) :: 37.7
7) CC1OC2OC3C(OCC(O)C3O)OC(=O)[C@]34CCC(C)(C)CC3C3=CCC5[C@@]6(C)C[C@H](O)[C@H](OC7OC(CO)C(O)C(O)C7OC7OCC(OC(=O)CC(C)(O)CC(=O)OC1C(O)C2O)C(O)C7O)[C@@](C)(CO)C6CC[C@@]5(C)[C@]3(C)CC4 (some centres undefined) :: 18.5
8) CCCCCCCCCCCCCCCCNc1ccn(C2CC(O)C(COC(c3ccccc3)(c3ccccc3)c3ccc(OC)cc3)O2)c(=O)n1 (centres undefined) :: 53.8
